targetOrSystem: human recombinant P2X7 receptors (Homo sapiens)
Construct: expressed in transfected cells
Sequence (Q99572 whole entry): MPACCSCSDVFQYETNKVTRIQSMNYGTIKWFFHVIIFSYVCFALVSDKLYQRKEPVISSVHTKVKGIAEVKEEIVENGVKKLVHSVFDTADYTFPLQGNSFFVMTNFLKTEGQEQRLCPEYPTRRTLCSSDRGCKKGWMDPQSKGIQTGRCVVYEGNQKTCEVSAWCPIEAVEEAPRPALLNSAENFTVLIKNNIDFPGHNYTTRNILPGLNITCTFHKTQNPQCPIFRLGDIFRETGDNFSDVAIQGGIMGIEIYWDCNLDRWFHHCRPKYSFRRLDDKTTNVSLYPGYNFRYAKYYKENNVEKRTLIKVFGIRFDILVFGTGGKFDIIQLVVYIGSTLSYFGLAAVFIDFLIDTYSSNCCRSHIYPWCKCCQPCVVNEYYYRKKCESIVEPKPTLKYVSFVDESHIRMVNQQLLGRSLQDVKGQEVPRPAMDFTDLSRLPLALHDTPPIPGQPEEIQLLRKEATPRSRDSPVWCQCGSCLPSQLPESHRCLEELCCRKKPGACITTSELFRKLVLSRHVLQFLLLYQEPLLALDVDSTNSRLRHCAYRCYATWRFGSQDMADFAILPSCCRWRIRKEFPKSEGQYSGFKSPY
measurementNotes: Ethidium Accumulation Assay 2 (HEK293 cells, ATP-induced ethidium uptake)
Assay type: cell-based
experimentalConditions: HEK293 cells expressing human P2X7; sometimes mean of more than one measurement; read-out: Assay 2 (antagonist pIC50 for blocking ATP responses) (converted)
Items are presented alongside their recorded IC50.
metricName: IC50

chemicalstring=O=C(c1ccc(F)cc1Cl)N1CCn2c(nnc2-c2nccs2)C1 reportedresult="< 100 nM"
chemicalstring=Cc1c(F)ccc(C(=O)N2CCn3c(nnc3-c3cnccn3)C2)c1Cl reportedresult="< 10 nM"
chemicalstring=Cc1c(C(=O)N2CCn3c(nnc3-c3cnccn3)C2)ccc(F)c1F reportedresult="< 10 nM"
chemicalstring=O=C(c1cccc(C(F)(F)F)c1Cl)N1CCn2c(nnc2-c2cccnc2O)C1 reportedresult="< 100 nM"
chemicalstring=O=C(c1ccc(Cl)c(F)c1Cl)N1CCn2c(nnc2-c2ncns2)C1 reportedresult="< 10 nM"
chemicalstring=Cc1scnc1-c1nnc2n1CCN(C(=O)c1cccc(Cl)c1C)C2 reportedresult="< 100 nM"
